Method Description: Solubility in water
Format: physicochemical
Description: Solubility of compound (1) in water was investigated.
Counter-ions that a name gives are not always drawn.
Experimental Endpoint: solubility

Would you kindly share the measured solubility for COc1c(N2C[C@@H](N)C3(CC3)C2)c(F)cc2c(=O)c(C(=O)O)cn([C@@H]3C[C@@H]3F)c12 [Compound (1), monohydrochloride monohydrate] ?
≥ 100 mg/mL
